Biological target: 12-lipoxygenase (human leucocytes) (Homo sapiens, UniProt P18054)
Construct: human leucocytic lipoxygenase; endogenous in cells; host or cells: human (polynuclear) leucocytes
Sequence (P18054 1-663): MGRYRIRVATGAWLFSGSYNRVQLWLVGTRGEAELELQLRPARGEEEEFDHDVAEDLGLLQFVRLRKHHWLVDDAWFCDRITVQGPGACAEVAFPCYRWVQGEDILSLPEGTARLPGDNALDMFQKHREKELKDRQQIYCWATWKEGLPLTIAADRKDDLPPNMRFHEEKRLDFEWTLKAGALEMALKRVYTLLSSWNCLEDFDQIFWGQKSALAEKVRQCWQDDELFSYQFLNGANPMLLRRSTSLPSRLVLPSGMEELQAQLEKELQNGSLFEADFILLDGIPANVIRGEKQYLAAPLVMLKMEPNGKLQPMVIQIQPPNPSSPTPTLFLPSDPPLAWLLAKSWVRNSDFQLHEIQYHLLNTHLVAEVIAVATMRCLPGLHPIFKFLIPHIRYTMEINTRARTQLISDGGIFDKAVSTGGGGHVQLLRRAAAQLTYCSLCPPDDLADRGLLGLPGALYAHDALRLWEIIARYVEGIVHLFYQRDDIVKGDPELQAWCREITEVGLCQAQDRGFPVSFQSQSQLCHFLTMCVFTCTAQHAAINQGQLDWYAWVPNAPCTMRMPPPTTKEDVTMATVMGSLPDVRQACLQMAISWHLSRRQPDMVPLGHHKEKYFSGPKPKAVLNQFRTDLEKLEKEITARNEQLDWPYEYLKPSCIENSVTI
Test: Experiment No. 2: inhibition of 12-lipoxygenase in human leucocytes stimulated by ionophore and arachidonic acid (12-HETE)
Assay type: cell-based
Conditions: Experiment No. 2, 12-HETE, ionophore A23187 and arachidonic acid
pIC50: −log10 of the molar value.
Experimental readout: pIC50

[1] CCC(C)CSc1ccc(O)c(O)c1 (centres unmarked) [drawing 33]
[2] CCCCCCC(C)Sc1ccc(O)c(O)c1 (centres unmarked) [drawing 34]
Sorting ascending by pIC50, which comes first: 1 or 2 ? Answer by stating the label of the chosen item.
1

---

Biological target: 12-lipoxygenase (human leucocytes) (Homo sapiens)
Construct: human leucocytic lipoxygenase; endogenous in cells; host or cells: human (polynuclear) leucocytes
Sequence (P18054 1-663): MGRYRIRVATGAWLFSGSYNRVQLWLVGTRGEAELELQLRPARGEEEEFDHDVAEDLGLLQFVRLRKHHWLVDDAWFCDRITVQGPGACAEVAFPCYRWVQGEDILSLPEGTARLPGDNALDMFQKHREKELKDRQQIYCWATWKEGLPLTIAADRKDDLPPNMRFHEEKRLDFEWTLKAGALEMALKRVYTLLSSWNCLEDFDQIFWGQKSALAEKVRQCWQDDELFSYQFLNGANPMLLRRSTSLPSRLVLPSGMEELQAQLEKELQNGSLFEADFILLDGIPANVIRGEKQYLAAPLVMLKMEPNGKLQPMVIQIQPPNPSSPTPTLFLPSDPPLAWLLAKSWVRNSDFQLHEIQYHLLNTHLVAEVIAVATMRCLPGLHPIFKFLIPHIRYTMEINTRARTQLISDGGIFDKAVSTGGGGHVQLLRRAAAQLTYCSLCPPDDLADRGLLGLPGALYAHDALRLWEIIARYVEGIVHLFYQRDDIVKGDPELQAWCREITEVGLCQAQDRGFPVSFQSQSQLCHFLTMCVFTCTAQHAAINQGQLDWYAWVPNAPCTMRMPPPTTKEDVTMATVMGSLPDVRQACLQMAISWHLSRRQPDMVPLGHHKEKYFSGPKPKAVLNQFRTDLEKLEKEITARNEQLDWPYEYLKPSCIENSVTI
Assay: Experiment No. 1: inhibition of 12-lipoxygenase in human leucocytes stimulated by ionophore (12-HETE)
Assay type: cell-based
Details: Experiment No. 1, 12-HETE, ionophore A23187 alone
Experimental readout: IC50 (nM)

[1] CCC(C)CSc1ccc(O)c(O)c1 (centres unmarked) [drawing 30]
[2] Oc1ccc(S)cc1O [drawing 31]
# min-compare on IC50 between 1 and 2 Indicate which entry you chose by stating its label.
1
